The measurements presented in this section are drawn from PubChem BioAssay.

test: basal 3T3-L1 adipocyte mitochondrial potential changes, profiling panel, cell-based, JC-1 fluorescence, 3T3-L1 adipocytes, 24 h, 100 nL compound (AID 1168); settings: JC-1 mitochondrial fluorescence, higher = more signal, called active from +8 up or from −8 down; also: test concentration not given here
z-score values, listed per item
ASSAY METRIC: z-score

> print(dat)
                                   molecule  result.value
1  O=C1OCC=C[C@H]2OC34C=CCN(c5ccc6ccccc6c5)C(=O)[C@H]3N(CCCCCCO)C(=O)[C@@H]4[C@@H]12 (stereo partly drawn)         0.613
2  CCOC(=O)C[C@H]1[C@H](OC(=O)Cc2ccc3c(c2)OCO3)[C@@H](NC(=O)c2ccc(-c3ccccc3)cc2)c2cc(OCCCO)ccc2N1C(=O)c1ccc2ccccc2n1          0.61
3  O=C1O[C@H](c2ccccc2)[C@H](c2ccccc2)N2[C@H]1[C@@H](C(=O)O)[C@]1(C(=O)Nc3ccc(C#CCCO)cc31)[C@H]2c1ccc(O)cc1        -0.395

* * *

biological target: Calmodulin-1 (Homo sapiens); experiment: calcium-bound CALM1 binders on microarrays, profiling panel, artefact control for SMM control-protein annotation, biochemical, small-molecule microarray, Cy5-labelled CALM1, plus calcium (AID 1112); conditions: Cy5-CALM1 binding fluorescence, higher = more signal;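 also: score merges spot fluorescence with signal to noise from triplicate slides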
Label scheme for composite z-score: lower than 0.08 is condition not met, 0.08 and above is condition met.

MOLECULE	MEASUREMENT TARGET	LABEL VALUE
OC([C@@H]1CC(c2ccccc2)=NO1)[C@H]1CC(c2ccccc2)=NO1 (stereo partly drawn)	Calmodulin-1 (Homo sapiens)	condition not met
COc1ccc(C(O)C2C=CC3C(=O)N(c4ccccc4)C(=O)C3N2Nc2ccccc2F)cc1OCc1ccccc1 (stereo not drawn)	Calmodulin-1 (Homo sapiens)	condition met
O=C(O)[C@@]1(CCS(=O)(=O)c2ccccc2)COC(c2ccc(OCCCO)cc2)=N1	Calmodulin-1 (Homo sapiens)	condition met
C=CCC(OC(C)=O)[C@@H]1[C@@H](N(Cc2ccc(-c3ccccc3)cc2)C(=O)Cc2ccc(F)cc2)c2cc(OCCCO)ccc2N1C(=O)c1ccc(-c2ccccc2)cc1 (stereo partly drawn)	Calmodulin-1 (Homo sapiens)	condition met
Cc1ccc(S[C@]2(C(=O)NCC(F)(F)F)CC(=O)N(C(C)C)[C@@H]2c2ccc(CO)cc2I)cc1	Calmodulin-1 (Homo sapiens)	condition met
CCOc1cc(C(O)C2C=CC3C(=O)N(c4ccccc4)C(=O)C3N2Nc2ccccc2)ccc1O (stereo not drawn)	Calmodulin-1 (Homo sapiens)	condition not met
COc1ccc(C(O)C2C=CC3C(=O)NC(=O)C3N2Nc2ccccn2)cc1 (stereo not drawn)	Calmodulin-1 (Homo sapiens)	condition not met

* * *

test: E. coli growth modulation, two-sided OD650, primary screen, E. coli filamentation project, strain DRC41, 24 h (AID 1093); conditions: OD650, 24 h, higher = more signal, called active from +8 up or from −8 down;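 also: MC1000 strain lacking acrAB efflux and sulA so SOS filamentation is blocked; test concentration not given here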
Label scheme for z-score: lower than 0.3 is false, 0.3 and above is true.

MOLECULE	LABEL VALUE
C=CCN1C(=O)[C@]2(O[C@H](CCO)[C@@H]([Si](C)(C)c3ccc(OC)cc3)[C@@H]2C)c2cc(N3C(=O)c4cccc5cccc3c45)ccc21	true
COC(=O)c1c(CC[C@@H](CO)NC(=O)N[C@H](Cn2cc(Cc3ccccc3)nn2)C(C)C)oc(C(C)=O)c1C(=O)OC	true
O=C(NCc1ccccc1)[C@@H]1c2ccccc2C(=O)N(CC23CC4CC(CC(C4)C2)C3)[C@H]1c1ccc(CO)cc1	false
O=C1[C@H]2C=C(Br)[C@H](C[C@@H]2OCCCCO)[C@@]12CO2	false
COCCCNC(=O)C1N=C(c2ccc(OCCCO)cc2)N(c2ccccc2)O1 (centres undefined)	true
O=C1OCC=C[C@H]2OC34C=CCN(c5ccc6ccccc6c5)C(=O)[C@H]3N(CCCCCCO)C(=O)[C@@H]4[C@@H]12 (some centres undefined)	false
C=C(COC)/C(=C/C[C@@H](OC(C)=O)c1ccc(CO)o1)c1cnc2ccccc2c1	true
COc1ccc([C@H]2OC[C@@H]3CC4(CC=CC4)C(=O)N32)cc1	false
COc1ccc(C(=O)Nc2ccc(CN3C(=O)[C@@]4(O[C@@H](CCn5cc([C@H](O)c6ccccc6)nn5)[C@H]([Si](C)(C)c5ccc(OC)cc5)[C@H]4C)c4ccccc43)cc2)cc1	false
C[C@@H]1ON(c2cccc(C(=O)OC(C)(C)C)c2)[C@H](c2ccc(Br)cc2)[C@H]1C(=O)N1C(=O)OC[C@H]1Cc1ccccc1	false
O=C1OCCC/C=C\[C@H]2OC34C=CCN(Cc5ccccc5)C(=O)[C@H]3N(CCCCCCO)C(=O)[C@@H]4C12 (some centres undefined)	true
O=C1c2ccccc2[C@](Cc2ccccc2I)(C(=O)NC2CC2)[C@H](c2ccc(CO)cc2)N1C1CCCCC1	false
COc1ccc(C(=O)Nc2cccc(CN3C(=O)[C@]4(O[C@H](CCO)[C@@H]([Si](C)(C)c5ccc(OC)cc5)[C@@H]4C)c4ccccc43)c2)cc1	true
O=C1OCCC/C=C\[C@H]2OC34C=CCN(c5ccc6ccccc6c5)C(=O)[C@H]3N(CCCCCCO)C(=O)[C@@H]4C12 (some centres undefined)	true
O=C1O[C@H](c2ccccc2)[C@H](c2ccccc2)N2[C@H]1[C@@H](C(=O)N1CCN(c3ncccn3)CC1)[C@]1(C(=O)Nc3ccc(C#CC4=CCCCC4)cc31)[C@H]2c1ccc(O)cc1	true
CC(C)(C)OC(=O)CC[C@@]12N=C(c3ccc(OCCCO)cc3)O[C@@H]1c1ccccc1N(CCS(=O)(=O)c1ccccc1)C2=O	true
CC1CC/C=C\[C@H]2OC34C=CCN(C(C)(C)C)C(=O)[C@H]3N(CCCCCCO)C(=O)[C@@H]4C2C(=O)O1 (some centres undefined)	false
C=C/C=C/[C@H]1C(=C)CN([C@@H](Cc2ccccc2)C(=O)OC)[C@@H]1[C@H](O)Cc1ccccc1	true
CN1C(=O)C2C=CC(C(O)c3cccs3)N(Nc3ccccc3)C2C1=O (centres undefined)	false
CCCCC(O)C1C=CC2C(=O)N(c3ccccc3)C(=O)C2N1Nc1ccccc1F (centres undefined)	false
COCCOC(=O)N1C(=O)[C@@]2(c3cc(C#CCCO)ccc31)[C@H](c1ccc(OCCO)cc1)N1[C@H](c3ccccc3)[C@H](c3ccccc3)OC(=O)[C@H]1[C@@H]2C(=O)N1CCN(c2ncccn2)CC1	false
OC([C@@H]1CC(c2ccccc2)=NO1)[C@H]1CC(c2ccccc2)=NO1 (some centres undefined)	true
COC(=O)C(CC#Cc1ccc2c(c1)[C@]1(C(=O)N2)[C@H](c2ccc(O)cc2)N2[C@H](c3ccccc3)[C@H](c3ccccc3)OC(=O)[C@H]2[C@@H]1C(=O)Nc1nc2ccccc2s1)C(=O)OC	true
CC(C)C[C@@H]1NC(=O)[C@@H]2C[C@H](C(=O)NCCCCCN)[C@H](c3cccc(OCCO)c3)N2C1=O	true
